- assay remarks: Activators via SNCA 5'UTR binding, MLPCN (AID 1814)
- settings: alpha-synuclein 5'UTR reporter, activators screen; tested at 7.5 µM
Out of some 300,000 compounds screened, about 22,000 (7.3%) were called active. Another 2% or so got no clear call; they are omitted. No stated cut-off is given here; in the data, active means activity score below about -60%; inconclusive means mostly about -28% to -61%; inactive means positive scores. Many of the other results were omitted from the sample, so actives are more common in it than they were.
Classes used: yes (1) (active), no (0) (inactive)

* COc1ccc(/C=N/OCc2ccccc2C#N)c(OC)c1 | yes (1)
* O=C(Nc1cccc2ccccc12)c1onc2c1CCCC2 | yes (1)
* O=C(c1ccc(CSc2ccccc2)cc1)N1CCCCCC1 | yes (1)
* OCCN1CCN(C(=S)c2ccc(-c3ccccc3)cc2)CC1 | no (0)
* CN(C)S(=O)(=O)c1ccc2oc(SCC(=O)Nc3ccccc3F)nc2c1 | yes (1)
* Cc1nnc(NC(=O)/C=C/c2ccco2)s1 | yes (1)
* C/C(=N\NC(=O)c1ccc(C)cc1)C1C(=O)c2ccccc2C1=O | yes (1)
* CCCc1cc(C(=O)Nc2ccc(C(=O)OC)cc2)cs1 | yes (1)
* CCn1nnnc1SCC(=O)c1ccc(C)cc1C | yes (1)
* S=C(c1ccc(-c2ccccc2)o1)N1CCCCC1 | yes (1)
* Cc1ccc(-c2nc(C#N)c(NCCCn3ccnc3)o2)cc1 | yes (1)
* OCCCN1c2ccccc2Nc2nnc(-c3ccccc3)cc21 | yes (1)
* Cc1ccc(N)cc1-n1c(C)ccc1C | yes (1)
* O=C(/C=C/c1ccco1)Nc1ccc(Oc2ccccc2)cc1 | yes (1)
* Cc1n[nH]c(C)c1S(=O)(=O)N1CCCC(C(=O)Nc2ccc(Br)cc2)C1 (stereo not given) | yes (1)
* COc1ccc(Cc2nnc(N/N=C/c3ccccc3O)[nH]c2=O)cc1OC | no (0)
* CCSc1nnc(-c2cc3c(s2)-c2ccccc2CC3)o1 | yes (1)
* Cc1ccc(CSc2nc3[nH]ncc3c(=O)[nH]2)cc1 | yes (1)
* Cc1ccc(F)c(NC(=O)CCc2ccccc2)c1 | yes (1)
* NNc1nc2c(Cl)cccc2s1 | yes (1)
* COc1ccc(S(=O)(=O)N2CCCC(C(=O)Nc3ccc(NC(=O)c4ccccn4)cc3)C2)cc1 (stereo not given) | yes (1)
* Cc1ccnc(NC(=O)c2ccc(NC(=O)c3ccco3)cc2)c1 | yes (1)
* CCC(CC)c1nnc(NC(=O)/C=C/c2ccco2)s1 | yes (1)
* O=C(COc1ccc(Cl)cc1)Nc1ccccc1CO | yes (1)
* Cc1cccc(CS(=O)(=O)c2ncc(Cl)c(C(=O)Nc3ccc(F)cc3)n2)c1 | no (0)

* * *

- assay remarks: Activators via SNCA 5'UTR binding, MLPCN (AID 1814)
- settings: alpha-synuclein 5'UTR reporter, activators screen; tested at 7.5 µM
The campaign covered roughly 300,000 compounds. About 22,000 (7.3%) were called active. Inconclusive results (about 2%) are left out. Rule as the data show it: active = activity score below about -60%; inconclusive = mostly about -28% to -61%; inactive = positive scores. This is one part of a sample in which actives are shown more often than they occur.
Classes used: active, inactive

- Nc1[nH][nH]c(=O)c1N=Nc1ccc2c(c1)OCO2: active
- CCCc1cc(=O)[nH]c(SCC(=O)c2c(N)n(CC(C)C)c(=O)n(C)c2=O)n1: inactive
- Cc1ccc2c(c1)NCC(C(=O)NC1CCC(C)CC1)O2 (configuration not stated): active
- O=C(NCCSc1ccccc1)c1ccco1: active
- C/C(=N\Nc1ncc(Cl)cc1Cl)c1ccc(S(=O)(=O)NCc2ccco2)cc1: active
- C/C(=N\Nc1ncc(Cl)cc1Cl)c1cccs1: active
- CCN1/C(=C\c2ccc3ccccc3[n+]2CC)Sc2cc(C)ccc21: active
- CCCCC(=O)Nc1nc(C)c(-c2csc(Nc3ccc(Cl)cc3)n2)s1: active
- C/C(=N\Nc1nc2ccccc2[nH]1)c1cccs1: active
- COc1cccc(/C(C)=N/Nc2ncc(Cl)cc2Cl)c1: active
- OC(c1nnc(-c2ccccc2)o1)c1cccs1 (configuration not stated): active
- O=C(Nc1ccc(Oc2ccccc2)cc1)c1ccco1: active

* * *

- assay remarks: Activators via SNCA 5'UTR binding, MLPCN (AID 1814)
- settings: alpha-synuclein 5'UTR reporter, activators screen; active compounds read low; tested at 7.5 µM
Among all 300,000 compounds or so, about 22,000 (7.3%) were called active. About 2% were inconclusive and are not listed. Many of the other results were omitted from the sample, so actives are more common in it than they were.
recorded metric: activity score (%)

- COc1cc2c(cc1/C=C1/NC(=O)N(c3ccccc3)C1=O)OCO2: -142
- Cc1cccc(-n2ncc3c(N4CCc5ccccc54)ncnc32)c1: -164
- COc1ccc(Cc2nnc(NC(=O)c3ccc(OC)cc3OC)s2)cc1: -62.4
- Nc1nc(-c2sc3nc4c(cc3c2N)CCCC4)nc(N2CCOCC2)n1: -113
- COc1cccc(NC(=S)C(C#N)=C2N(C)c3ccccc3N2C)c1: -86.1
- CS(=O)(=O)C1=NN2C(=N)/C(=C\c3ccc(OCCOc4ccccc4)cc3)C(=O)N=C2S1: -73.6
- O=C(Nc1cccc(-c2nnc(-c3ccccc3)o2)c1)C1CCCO1 (configuration not stated): -126
- COc1ccc(C(=O)Nc2nncs2)c(OC)c1: -106
- COc1ccccc1C1C2=C(COC2=O)Nc2cc3c(cc21)OCO3 (configuration not stated): 98.1
- COc1ccc(-n2ncc3c(N4CCc5ccccc54)ncnc32)cc1: -240
- COc1ccc(C(=O)NC2=NCCS2)c(OC)c1: -111
- O=C(Cc1ccccc1)NCc1ccc(F)cc1: -66.4

* * *

- assay remarks: Activators via SNCA 5'UTR binding, MLPCN (AID 1814)
- settings: alpha-synuclein 5'UTR reporter, activators screen; active compounds read low; tested at 7.5 µM
Out of some 300,000 compounds screened, about 22,000 (7.3%) were called active. Not shown: some 2% with an inconclusive outcome. Shown is part of a subset that was picked to be rich in actives.
Mark each entry true if its activity score sits below -70%, and false for all others.

• COC(=O)Cc1csc(/N=C/c2c(O)n(-c3cccc(C(F)(F)F)c3)c(=O)c3ccccc23)n1 = false
• O=C(Nc1ccc(Cl)c(Cl)c1)N1CC=C(c2ccccc2)CC1 = false
• COc1ccccc1N1CCN(/N=C\C(Br)=C\c2ccccc2)CC1 = true
• Cc1ccc(C(=O)NNc2ncnc3ccccc23)cc1 = true
• COc1cc(OC)cc(-c2nc(=S)n3ccsc3n2)c1 = true

* * *

Form field: activity score (one value per entry).
- assay remarks: Activators via SNCA 5'UTR binding, MLPCN (AID 1814)
- settings: alpha-synuclein 5'UTR reporter, activators screen; active compounds read low; tested at 7.5 µM
Among all 300,000 compounds or so, about 22,000 (7.3%) were called active. Not shown: some 2% with an inconclusive outcome. Shown is part of a subset that was picked to be rich in actives.
recorded metric: activity score

* Cc1ccc(NC(=S)NC2CCCC2)cc1 | -65.1% (active)
* Cc1ccc(/C=N/NC(=S)NC2CCCCC2)o1 | -135% (active)
* CCOC(=O)C1C(=O)C=C(c2ccc(OC)cc2)CC1c1ccco1 (configuration not stated) | -74.2% (active)
* CC(=O)Nc1ccc(/C=C/C(=O)c2ccccc2)cc1 | -201% (active)
* COc1ccccc1NC(=O)c1ccc(C)s1 | -227% (active)
* Cc1sc(NC(=O)C2=COCCO2)c(C#N)c1C | -110% (active)
* CC(C)(C)C(=O)Nc1ccc(-c2cn3cccnc3n2)cc1 | -130% (active)
* COc1ccccc1NC(=O)C1=C(C)Nc2nc3ccccc3n2C1c1cccs1 (configuration not stated) | 106% (inactive)
* C1=C(CCNc2ncnc3c2cnn3-c2ccccc2)CCCC1 | -141% (active)
* O=C(NCCC1=CCCCC1)c1ccc(Cl)c([N+](=O)[O-])c1 | -108% (active)
* CC(=O)Nc1ccc(C(=O)/C=C/c2ccc[nH]2)cc1 | -142% (active)
* O=S(=O)(Nc1ccc2nc(-c3ccco3)[nH]c2c1)c1ccccc1 | -181% (active)

* * *

- assay remarks: Activators via SNCA 5'UTR binding, MLPCN (AID 1814)
- settings: alpha-synuclein 5'UTR reporter, activators screen; active compounds read low; tested at 7.5 µM
In all, about 300,000 compounds went through this assay and about 22,000 (7.3%) were called active. Roughly 2% stayed inconclusive and do not appear here. The sample as a whole holds a higher share of actives than the screen did.
recorded metric: activity score (%)

- Cc1ccc(NC(=S)Nc2ncccc2C)c(C)c1: -199
- NC(=O)COc1ccc(C23CC4CC(CC(C4)C2)C3)cc1: -101
- CN(Cc1ccccc1)C(=O)CSc1nc2ccccc2[nH]1: -93.7
- O=C(Nc1ccc2c(c1)CCC2)c1ccc(Br)s1: -159
- O=C(CNC(=O)c1ccccc1F)c1ccc(Br)cc1: -97.5
- CCOC(=O)C1(Cc2ccccc2C)CCCN(C(=O)c2ccc(COC)o2)C1 (centres undefined): -84.1
- O=C(CNC(=O)c1ccc(F)cc1)c1ccccc1: -128
- CCC(=O)Nc1ccc(C(=O)Nc2cccc(OC)c2)cc1: -74.7
- c1ccc(-c2ccc(OCCN3CCOCC3)cc2)cc1: -93.6
- Cc1cccn2c(=O)c(C=O)c(Nc3ccc(S(N)(=O)=O)cc3)nc12: -500
- O=C(CSc1nc2ccccc2[nH]1)c1cccs1: -160
- COc1ccc(C(=O)CC(=O)c2ccc(C)cc2)c(O)c1: -96.9
- Cn1c(=NC(=O)c2cnccn2)sc2ccccc21: -97.9
- O=C(CN1C(=O)S/C(=C\c2ccccc2Cl)C1=O)NC1C=CS(=O)(=O)C1 (centres undefined): -83.8
